Attribution: patent US20250277029A1

- target-desc: human cannabinoid receptor 1 (huCB1), full length, expressed on cells (human, UniProt P21554 1-472)
- Sequence (P21554 whole entry): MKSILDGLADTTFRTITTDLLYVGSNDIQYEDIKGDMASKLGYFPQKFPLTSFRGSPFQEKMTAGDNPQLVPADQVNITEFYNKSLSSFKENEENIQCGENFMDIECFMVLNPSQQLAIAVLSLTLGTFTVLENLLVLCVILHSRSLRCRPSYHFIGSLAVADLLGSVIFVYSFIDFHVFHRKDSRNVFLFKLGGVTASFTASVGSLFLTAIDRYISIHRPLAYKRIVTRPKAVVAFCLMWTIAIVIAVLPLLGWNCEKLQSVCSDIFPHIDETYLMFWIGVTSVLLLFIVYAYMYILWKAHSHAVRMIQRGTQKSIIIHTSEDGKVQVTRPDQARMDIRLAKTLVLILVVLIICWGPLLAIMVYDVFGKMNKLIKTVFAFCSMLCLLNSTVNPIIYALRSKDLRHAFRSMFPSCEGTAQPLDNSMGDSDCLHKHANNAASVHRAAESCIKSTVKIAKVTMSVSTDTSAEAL
- protocol: cell-based or functional assay
Measured n = 1 IC50 (nM), cAMP antagonist assay by item
Respond numerically; units are nM and should not be typed.

Here is how some binders turned out for n = 1 IC50 (nM), cAMP antagonist assay.
1. LIBC528116-1 (antibody, V domains shown, Expressed as IgG1 SEFL2 mAb; also called 37940-4) VH: QVQLQESGPGLVKPSQTLSLTCTVSGGSIRRGGDYWAWIRQHPGKGLEWIGHVYYTGSTNYNPRFKDRATISVNTYKNQFSLKLSSVTAADTAVYYCARNYDTVTGYSYYYYGMDVWGQGTTVTVSS VL: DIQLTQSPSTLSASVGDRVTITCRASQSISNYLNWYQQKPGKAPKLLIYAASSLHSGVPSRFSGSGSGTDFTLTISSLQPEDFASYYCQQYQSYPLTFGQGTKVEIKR; 3.93
2. LIBC523813-1 (antibody, V domains shown) VH: QVQLQESGPGLVKPSQTLSLTCTVSGGSIRRGGDYWSWIRQHPGKGLEWIGHVYYTGQTAYNPKFKDRATISVKTYKNQFSLKLSSVTAADTAVYYCARDYDILTGYSYYYYGMDVWGQGTTVTVSS VL: DIVMTQSPLSLPVTPGEPASISCRSSQSLLSSSGANYVDWYLQKPGQSPQLLIYLGSNRASGVPDRFSGSGSGTDFTLKISRVEAEDVGVYYCMQARGIPRTFGQGTKVEIKR; 8.96

Reported n = 1 IC50 (nM), cAMP antagonist assay for LIBC527814-1 (antibody, V domains shown, Expressed as IgG1 SEFL2 mAb) VH: QVQLQESGPGLVKPSQTLSLTCTVSGGSIRRGGDYWGWIRQHPGKGLEWIGHVYQTGSTKYNPSFKDRATISVNTYKNQFSLKLSSVTAADTAVYYCARNYDTLTGYSYYYYGMDVWGQGTTVTVSS VL: DIQMTQSPSTLSASVGDRVTITCRASQSISNYLNWYQQKPGKAPKLLIYAASSLHSGVPSRFSGSGSGTDFTLTISSLQPEDFASYYCQQYQSYPLTFGQGTKVEIKR was 4.72

Reported n = 1 IC50 (nM), cAMP antagonist assay for LIBC527912-1 (antibody, V domains shown) VH: QVQLQESGPGLVKPSQTLSLTCTVSGGSIRRGGDYWSWIRQHPGKGLEWIGYIYQTGQTKYNPNFEGRATISVNTYKNQFSLKLSSVTAADTAVYYCARDYDILTGYSYYYYGMDVWGQGTTVTVSS VL: DIQLTQSPSSLSASVGDRVTITCRASQSISSYLNWYQQKPGKAPKLLIYAASSLRSGVPSRFSGSGSGTDFTLTISSLQPEDFATYYCQQYSNYPLTFGGGTRVEIKR was 5.91

Reported n = 1 IC50 (nM), cAMP antagonist assay for LIBC523670-1 (antibody, V domains shown) VH: QVQLQESGPGLVKPSQTLSLTCTVSGGSIRRGGDYWAWIRQHPGKGLEWIGHVYQTGQTAYNPNLESRATISVNTYKNQFSLKLSSVTAADTAVYYCARNYDVLSGYSYYYYGMDVWGQGTTVTVSS VL: DIVMTQSPLSLPVTPGEPASISCRSSQSLLTSYGANYLDWYLQKPGQSPQLLIYQGSNRASGVPDRFSGSGSGTDFTLKISRVEAEDVGVYYCMQALQIPRTFGQGTKVEIKR was 8.72

Reported n = 1 IC50 (nM), cAMP antagonist assay for LIBC527968-1 (antibody, V domains shown) VH: QVQLQESGPGLVKPSQTLSLTCTVSGGSIRRGGDYWSWIRQHPGKGLEWIGHIYQSGSTKYNPSFKDRATISVNTYKNQFSLKLSSVTAADTAVYYCARDYDILTGYSYYYYGMDVWGQGTTVTVSS VL: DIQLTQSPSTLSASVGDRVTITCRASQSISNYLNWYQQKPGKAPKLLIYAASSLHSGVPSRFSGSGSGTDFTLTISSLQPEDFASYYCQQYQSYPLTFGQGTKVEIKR was 6.1
